# SYSTEM: Phosphatidylinositol 4,5-bisphosphate 3-kinase catalytic subunit gamma isoform (Homo sapiens)
# Sequence (P48736 whole entry, canonical isoform): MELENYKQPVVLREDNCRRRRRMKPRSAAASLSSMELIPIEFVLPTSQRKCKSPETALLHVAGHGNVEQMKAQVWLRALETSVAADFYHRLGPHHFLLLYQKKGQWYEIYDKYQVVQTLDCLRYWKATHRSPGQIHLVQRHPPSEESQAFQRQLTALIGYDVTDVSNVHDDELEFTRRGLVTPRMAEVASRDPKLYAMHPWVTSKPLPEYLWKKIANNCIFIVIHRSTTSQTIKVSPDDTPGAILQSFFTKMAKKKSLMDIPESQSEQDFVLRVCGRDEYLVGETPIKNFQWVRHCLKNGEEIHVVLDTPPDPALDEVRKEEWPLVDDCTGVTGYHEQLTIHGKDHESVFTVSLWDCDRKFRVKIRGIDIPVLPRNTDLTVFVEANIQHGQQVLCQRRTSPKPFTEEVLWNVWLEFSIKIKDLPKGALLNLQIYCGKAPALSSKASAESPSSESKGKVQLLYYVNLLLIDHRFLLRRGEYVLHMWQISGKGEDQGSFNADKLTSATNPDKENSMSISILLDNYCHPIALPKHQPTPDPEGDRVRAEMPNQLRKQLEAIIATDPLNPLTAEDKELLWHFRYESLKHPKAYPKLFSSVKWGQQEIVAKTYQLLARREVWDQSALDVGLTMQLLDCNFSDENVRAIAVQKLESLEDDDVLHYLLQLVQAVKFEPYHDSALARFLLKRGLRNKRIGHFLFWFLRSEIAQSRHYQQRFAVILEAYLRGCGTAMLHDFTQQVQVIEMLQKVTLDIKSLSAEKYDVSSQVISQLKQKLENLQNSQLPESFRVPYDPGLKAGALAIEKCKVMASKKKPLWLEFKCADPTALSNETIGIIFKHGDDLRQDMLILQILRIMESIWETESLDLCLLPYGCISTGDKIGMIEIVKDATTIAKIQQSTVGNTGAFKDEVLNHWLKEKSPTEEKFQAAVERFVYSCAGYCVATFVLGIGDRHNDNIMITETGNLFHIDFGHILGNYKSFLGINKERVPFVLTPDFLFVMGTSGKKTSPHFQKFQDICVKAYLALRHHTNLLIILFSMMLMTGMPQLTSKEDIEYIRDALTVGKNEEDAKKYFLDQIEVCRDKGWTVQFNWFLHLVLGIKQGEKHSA
# TEST METHOD NOTES: Inhibition of PI3Kgamma

{"SUBSTANCE SMILES": "CC(C)C[C@H]1CN(c2ccc(C(F)(F)F)c(C(=O)c3cccnc3N)n2)CCN1", "Ki": "> 4 µM"}
